- target: Kappa-type opioid receptor (Homo sapiens, UniProt P41145)
- Sequence (P41145 whole entry): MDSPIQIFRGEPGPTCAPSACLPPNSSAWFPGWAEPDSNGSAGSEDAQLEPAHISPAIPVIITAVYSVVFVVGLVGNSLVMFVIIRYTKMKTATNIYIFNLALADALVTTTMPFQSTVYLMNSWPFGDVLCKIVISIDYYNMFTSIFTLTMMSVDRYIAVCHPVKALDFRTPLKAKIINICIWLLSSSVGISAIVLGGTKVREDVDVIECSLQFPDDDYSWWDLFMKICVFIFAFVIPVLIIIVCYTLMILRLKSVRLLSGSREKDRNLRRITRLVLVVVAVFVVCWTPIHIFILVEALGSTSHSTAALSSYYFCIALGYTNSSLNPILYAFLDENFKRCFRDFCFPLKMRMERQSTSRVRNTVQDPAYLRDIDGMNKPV
- Format: functional
quantity: IC50
Entry format: amount then unit.

Lookup: // lookup IC50 | system=Kappa-type opioid receptor (Homo sapiens, UniProt P41145) | key= `COc1ccc(S(=O)(=O)N(CC(=O)Nc2ccc(S(=O)(=O)N3CCOCC3)cc2)c2ccccc2)cc1`
Found: 4.04 µM

###

- target: Voltage-gated N-type calcium channel alpha-1B subunit/Amyloid beta A4 precursor protein-binding family A member 1 (Homo sapiens, UniProt Q00975+Q02410)
- Sequence (Q00975 whole entry): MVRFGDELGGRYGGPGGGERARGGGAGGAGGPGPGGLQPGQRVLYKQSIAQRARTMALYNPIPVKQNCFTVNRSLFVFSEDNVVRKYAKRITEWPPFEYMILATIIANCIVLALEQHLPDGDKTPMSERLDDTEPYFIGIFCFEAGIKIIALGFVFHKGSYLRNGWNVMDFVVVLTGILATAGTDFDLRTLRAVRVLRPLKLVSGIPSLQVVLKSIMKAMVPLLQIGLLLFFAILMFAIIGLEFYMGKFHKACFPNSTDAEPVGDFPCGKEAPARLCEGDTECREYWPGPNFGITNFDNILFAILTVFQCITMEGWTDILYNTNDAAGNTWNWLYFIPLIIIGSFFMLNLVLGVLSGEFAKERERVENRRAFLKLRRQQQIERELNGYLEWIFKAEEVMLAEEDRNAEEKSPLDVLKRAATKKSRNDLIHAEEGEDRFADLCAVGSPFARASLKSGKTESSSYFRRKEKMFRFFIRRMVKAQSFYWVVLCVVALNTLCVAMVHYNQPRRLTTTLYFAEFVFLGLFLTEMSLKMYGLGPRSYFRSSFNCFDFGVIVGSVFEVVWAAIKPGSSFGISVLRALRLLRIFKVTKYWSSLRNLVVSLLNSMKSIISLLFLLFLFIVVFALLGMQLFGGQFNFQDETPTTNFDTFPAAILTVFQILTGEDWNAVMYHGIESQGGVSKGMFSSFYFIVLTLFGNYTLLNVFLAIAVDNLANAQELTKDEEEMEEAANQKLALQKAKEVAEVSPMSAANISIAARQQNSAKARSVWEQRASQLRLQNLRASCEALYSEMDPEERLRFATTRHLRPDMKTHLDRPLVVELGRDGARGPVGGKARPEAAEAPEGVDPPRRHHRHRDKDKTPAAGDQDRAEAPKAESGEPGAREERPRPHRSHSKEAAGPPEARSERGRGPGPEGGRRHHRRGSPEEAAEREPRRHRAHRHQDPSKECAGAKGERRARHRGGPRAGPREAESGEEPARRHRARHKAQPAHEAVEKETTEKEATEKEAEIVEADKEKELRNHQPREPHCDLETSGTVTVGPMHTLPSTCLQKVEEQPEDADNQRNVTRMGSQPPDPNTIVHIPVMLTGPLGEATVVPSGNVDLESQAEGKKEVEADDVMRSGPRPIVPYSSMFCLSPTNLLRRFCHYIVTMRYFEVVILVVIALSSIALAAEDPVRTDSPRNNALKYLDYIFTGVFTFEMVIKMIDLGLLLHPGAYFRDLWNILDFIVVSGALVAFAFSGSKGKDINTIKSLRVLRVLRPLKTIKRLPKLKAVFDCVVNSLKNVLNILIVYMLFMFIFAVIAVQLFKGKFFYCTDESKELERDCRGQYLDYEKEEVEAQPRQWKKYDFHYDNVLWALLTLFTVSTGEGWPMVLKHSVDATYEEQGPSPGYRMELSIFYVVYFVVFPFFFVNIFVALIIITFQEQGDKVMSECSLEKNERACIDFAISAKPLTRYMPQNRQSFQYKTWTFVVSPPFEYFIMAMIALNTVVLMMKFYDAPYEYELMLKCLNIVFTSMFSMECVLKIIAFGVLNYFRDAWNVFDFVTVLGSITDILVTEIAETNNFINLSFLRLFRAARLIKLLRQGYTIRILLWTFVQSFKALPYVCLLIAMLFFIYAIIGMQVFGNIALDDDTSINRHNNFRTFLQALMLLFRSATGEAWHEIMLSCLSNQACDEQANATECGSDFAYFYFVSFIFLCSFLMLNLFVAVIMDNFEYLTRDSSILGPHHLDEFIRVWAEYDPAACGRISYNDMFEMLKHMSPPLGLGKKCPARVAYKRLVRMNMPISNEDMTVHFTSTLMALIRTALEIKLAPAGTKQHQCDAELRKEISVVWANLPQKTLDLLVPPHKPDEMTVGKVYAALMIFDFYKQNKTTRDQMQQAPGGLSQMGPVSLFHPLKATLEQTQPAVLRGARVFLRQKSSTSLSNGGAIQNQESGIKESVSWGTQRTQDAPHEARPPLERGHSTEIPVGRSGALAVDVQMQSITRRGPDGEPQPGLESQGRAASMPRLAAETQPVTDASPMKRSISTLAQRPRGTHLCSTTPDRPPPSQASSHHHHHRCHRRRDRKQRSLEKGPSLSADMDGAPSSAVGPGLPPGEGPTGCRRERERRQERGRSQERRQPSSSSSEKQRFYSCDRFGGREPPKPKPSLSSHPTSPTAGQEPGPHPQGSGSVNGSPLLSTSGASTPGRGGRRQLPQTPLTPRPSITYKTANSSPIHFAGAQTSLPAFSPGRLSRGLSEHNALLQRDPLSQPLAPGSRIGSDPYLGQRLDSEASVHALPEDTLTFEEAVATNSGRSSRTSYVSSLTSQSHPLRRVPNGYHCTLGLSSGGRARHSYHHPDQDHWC
- Sequence (Q02410 whole entry): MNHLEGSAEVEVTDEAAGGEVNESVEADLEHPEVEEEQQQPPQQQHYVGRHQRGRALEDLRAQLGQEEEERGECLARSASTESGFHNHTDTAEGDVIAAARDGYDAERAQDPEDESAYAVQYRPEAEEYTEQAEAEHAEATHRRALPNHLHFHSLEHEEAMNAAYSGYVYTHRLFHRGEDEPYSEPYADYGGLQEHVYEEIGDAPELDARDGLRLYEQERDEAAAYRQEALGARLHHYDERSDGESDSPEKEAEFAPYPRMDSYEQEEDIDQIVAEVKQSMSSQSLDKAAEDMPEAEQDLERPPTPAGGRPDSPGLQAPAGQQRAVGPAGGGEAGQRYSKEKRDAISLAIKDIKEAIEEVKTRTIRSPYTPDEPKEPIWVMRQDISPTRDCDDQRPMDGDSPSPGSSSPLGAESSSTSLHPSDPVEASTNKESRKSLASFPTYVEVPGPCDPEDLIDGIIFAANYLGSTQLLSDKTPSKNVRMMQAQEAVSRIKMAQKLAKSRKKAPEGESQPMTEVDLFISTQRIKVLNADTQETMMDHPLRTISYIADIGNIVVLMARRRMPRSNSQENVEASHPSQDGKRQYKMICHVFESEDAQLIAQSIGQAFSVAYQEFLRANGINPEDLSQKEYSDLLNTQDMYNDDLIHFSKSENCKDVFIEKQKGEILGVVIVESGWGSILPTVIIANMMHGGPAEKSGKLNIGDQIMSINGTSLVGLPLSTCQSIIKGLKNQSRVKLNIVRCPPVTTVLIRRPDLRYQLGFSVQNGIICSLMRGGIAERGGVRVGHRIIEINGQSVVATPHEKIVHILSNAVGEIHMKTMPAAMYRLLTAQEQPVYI
- Type: protein assay
Calls of active or inactive are those of the source.
Would you mind answering with one of these outcomes? 1 (yes) for active, 0 (no) for inactive

Solved entries:
In [3]: df
Out[3]:
                                   molecule  qualitative_label
0  COC(=O)c1cc(NC(=O)c2ccccc2)c(=O)oc1/C=C/Nc1ccc(Oc2ccccc2)cc1             0 (no)
1  CCOC(=O)c1nnn2c1nc(Nc1cccc(C(F)(F)F)c1)c1ccccc12             0 (no)
2  O=C(CCN1C(=O)/C(=C/c2ccc(Cl)cc2)SC1=S)NC1C=CS(=O)(=O)C1 (stereo not given)             0 (no)
3  CCOC(=O)c1sc2nc3c(SCCC(=O)O)cc(C(=O)c4cc(OC)ccc4O)cn3c(=O)c2c1C            1 (yes)

Lookup: Record request — test call for `COc1cc(/C=C2\SC(=O)N(CC(=O)Nc3ccc(C)cc3)C2=O)cc(Cl)c1OCC(=O)O`
Found: 0 (no)

###

Measured EC50, listed per entry for reference.
- target: Streptokinase A (Streptococcus pyogenes serotype M1)
- Sequence (P10520 whole entry): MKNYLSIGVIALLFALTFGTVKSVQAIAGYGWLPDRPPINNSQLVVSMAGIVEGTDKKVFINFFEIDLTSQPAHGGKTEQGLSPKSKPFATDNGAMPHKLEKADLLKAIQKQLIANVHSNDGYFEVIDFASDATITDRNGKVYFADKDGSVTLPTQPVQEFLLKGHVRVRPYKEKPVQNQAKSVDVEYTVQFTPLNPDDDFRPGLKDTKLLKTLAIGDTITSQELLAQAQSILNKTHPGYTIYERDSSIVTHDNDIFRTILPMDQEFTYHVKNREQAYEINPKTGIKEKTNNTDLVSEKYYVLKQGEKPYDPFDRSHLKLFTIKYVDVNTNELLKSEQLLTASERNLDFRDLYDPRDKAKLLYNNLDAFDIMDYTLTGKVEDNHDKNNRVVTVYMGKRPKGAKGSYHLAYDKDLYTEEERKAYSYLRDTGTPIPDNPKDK
- assay.explanation: S. pyogenes streptokinase expression inhibitors, potency, dose response, plasminogen activation absorbance, OD405 (AID 1914);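 further: secreted streptokinase activity via plasminogen activation per viability signal from cell pellet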
- Type: functional, Streptococcus pyogenes M1 GAS
The source made the active and inactive calls.

                                   compound                                    target          reported_value
0  CC(C)(C)c1ccc(Oc2cccc(C3CC(=O)C(C4NCCc5ccccc54)C(=O)C3n3cncn3)c2)cc1 (stereo not given)  Streptokinase A (Streptococcus pyogenes serotype M1)   > 150 µM (not active)
1  CC(/C=C/c1ccc(N(C)C)cc1)=N\NC1=NC(=O)CC(C(=O)Nc2ccccc2)S1 (stereo not given)  Streptokinase A (Streptococcus pyogenes serotype M1)   > 150 µM (not active)
2    COc1cccc(-c2nc(NC3CCCC3)c3ccccc3n2)c1O  Streptokinase A (Streptococcus pyogenes serotype M1)  78.1 µM (inconclusive)
3  O=[N+]([O-])c1cc(C(F)(F)F)ccc1NCCNC(=S)Nc1ccc(Cl)cc1  Streptokinase A (Streptococcus pyogenes serotype M1)   > 150 µM (not active)
4  CC1CCCN(S(=O)(=O)c2ccc(C(=O)Nc3nnc(C4=COCCO4)o3)cc2)C1 (stereo not given)  Streptokinase A (Streptococcus pyogenes serotype M1)   > 150 µM (not active)
5  CC1CCN(c2nc(-c3ccc(F)cc3)cc(C(F)(F)F)n2)CC1  Streptokinase A (Streptococcus pyogenes serotype M1)        4.61 µM (active)
6  O=C(CC1CC2CCC1C2)Nc1nc(-c2ccccn2)cs1 (stereo not given)  Streptokinase A (Streptococcus pyogenes serotype M1)   > 150 µM (not active)
7  N#C/C(=C\c1ccc(/C=C(/C#N)c2nn(CCO)c(N)c2C#N)cc1)c1nn(CCO)c(N)c1C#N  Streptokinase A (Streptococcus pyogenes serotype M1)   > 150 µM (not active)

Lookup: Returns the measured EC50 for the input compound. Input: `CC(C)OC(=O)c1c(NS(=O)(=O)c2ccccc2)sc2c1CCCC2`
Found: > 150 µM (not active)

Lookup: Returns the measured EC50 for the input compound. Input: `Cn1c(=O)c(C(=O)NNC(=O)c2ccccc2F)c(O)c2ccccc21`
Found: > 150 µM (not active)
